Biological target: T1, O8-bN
T1 chain: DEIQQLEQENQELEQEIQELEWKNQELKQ
Experiment: two-hybrid library CCNG1;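 also: natural log of median RNA to DNA barcode read ratio; higher means stronger binding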
Returns one of YES or NO; YES when interaction score is >= -1.

Has DKIQQLKQEIQELEQKNQELKWKNQELKQ [O4-bN] a recorded interaction score greater than or equal to -1?
YES

Can you check DENQQLEQEIQELEQENQELEWKIQELKQ [O14-bN] next?
NO

Can you check DEIQQLEQENQELEQEIQELEWKNQELKQ [O8-bN] next?
YES

Can you check DEIQQLEQENQELEQKIQELKWENQELEQ [O15-bN] next?
NO

Can you check DKNQQLKQKIQELKQKNQELKWEIQELEQ [O13-bN] next?
NO

Can you check DKIQQLKQKNQELKQEIQELEWKNQELKQ [O16-bN] next?
YES

Can you check DENQQLEQEIQELEQKNQELKWEIQELEQ [O5-bN] next?
YES
